Assignment: determine reported pERK-HEK293-Beta-klotho without HSA [EC50 (nM)] Median Value for the given binders.
- Target entity: human beta-Klotho (human, UniProt Q86Z14 1-1044)
- Assay name: cell-based or functional assay
Answers are plain numbers, in nM.

// below: answered binders
{"columns": ["Binder", "Unit abbreviation", "Reported result"],
 "data": [
  ["Derivative 21: Analog 5 with modifying moiety III on the sulphur of Cys 71 (ligand, Cys 71: {2-[2-(2-{2-[2-(2-{2-[(S)-4-Carboxy-4-(17-carboxyheptadecanoylamino)butyrylamino]ethoxy}ethoxy)acetylamino]ethoxy}ethoxy)acetylamino]ethylcarbamoyl}methyl (modifying moiety III) on the sulphur atom) AHPIPDSSPLLQFGGQVRQRYLYTDDAQQTEAHLEIREDGTVGGAADQSPESLLQLKALKPGVIQILGVKTCRFLCQRPDGALYGSLHFDPEACSFRELLLEDGYNVYQSEAHGLPLHLPGQKSPHRDPAPRGPARFLPLPGLPPALPEPPGILAPQPPDVGSSDPFGLVGPSQVRSPSFE", "nM", 1.07],
  ["[-1A, S71C, N121Q, L166F, S167G, M168L, P171L, S172E, Q173A, G174V, Y179F, A180E] FGF-21 (ligand) AHPIPDSSPLLQFGGQVRQRYLYTDDAQQTEAHLEIREDGTVGGAADQSPESLLQLKALKPGVIQILGVKTCRFLCQRPDGALYGSLHFDPEACSFRELLLEDGYNVYQSEAHGLPLHLPGQKSPHRDPAPRGPARFLPLPGLPPALPEPPGILAPQPPDVGSSDPFGLVGLEAVRSPSFES", "nM", 0.76],
  ["[-1A, 71C, 121Q, 166F, 167G, 168L, 171L, 172E, 173A, 174V, des179-181] FGF-21 (ligand) AHPIPDSSPLLQFGGQVRQRYLYTDDAQQTEAHLEIREDGTVGGAADQSPESLLQLKALKPGVIQILGVKTCRFLCQRPDGALYGSLHFDPEACSFRELLLEDGYNVYQSEAHGLPLHLPGQKSPHRDPAPRGPARFLPLPGLPPALPEPPGILAPQPPDVGSSDPFGLVGLEAVRSPS", "nM", 12.5],
  ["[-1A, S71C, N121Q, L166F, S167G, M168L, P171L, S172E, Q173A, G174V, Y179F, A180E, des181] FGF-21 (ligand) AHPIPDSSPLLQFGGQVRQRYLYTDDAQQTEAHLEIREDGTVGGAADQSPESLLQLKALKPGVIQILGVKTCRFLCQRPDGALYGSLHFDPEACSFRELLLEDGYNVYQSEAHGLPLHLPGQKSPHRDPAPRGPARFLPLPGLPPALPEPPGILAPQPPDVGSSDPFGLVGLEAVRSPSFE", "nM", 0.63],
  ["Derivative 23: Analog 7 with modifying moiety III on the sulphur of Cys 71 (ligand, Cys 71: {2-[2-(2-{2-[2-(2-{2-[(S)-4-Carboxy-4-(17-carboxyheptadecanoylamino)butyrylamino]ethoxy}ethoxy)acetylamino]ethoxy}ethoxy)acetylamino]ethylcarbamoyl}methyl (modifying moiety III) on the sulphur atom) AHPIPDSSPLLQFGGQVRQRYLYTDDAQQTEAHLEIREDGTVGGAADQSPESLLQLKALKPGVIQILGVKTCRFLCQRPDGALYGSLHFDPEACSFRELLLEDGYNVYQSEAHGLPLHLPGQKSPHRDPAPRGPARFLPLPGLPPALPEPPGILAPQPPDVGSSDPFGLVGLEAVRSPSFE", "nM", 0.64]
]}

Now take the following binder into account.
Answer with reported pERK-HEK293-Beta-klotho without HSA [EC50 (nM)] Median Value of [-1A, S71C, L166F, S167G, M168L, P171L, S172E, Q173A, G174V, Y179F, A180E] FGF-21 (ligand) AHPIPDSSPLLQFGGQVRQRYLYTDDAQQTEAHLEIREDGTVGGAADQSPESLLQLKALKPGVIQILGVKTCRFLCQRPDGALYGSLHFDPEACSFRELLLEDGYNVYQSEAHGLPLHLPGNKSPHRDPAPRGPARFLPLPGLPPALPEPPGILAPQPPDVGSSDPFGLVGLEAVRSPSFES
0.47
